src = the Human Domainome abundance scans (Beltran et al. 2025)

We begin with a simple list: items and their reported abundance fitness.
B1: Protein piccolo, residues 1058 to 1114; numbered along this chain, Q9Y6V0 (parent)
chain: TCPLCKTELNIGSKDPPNFNTCTECKNQVCNLCGFNPTPHLTEIQEWLCLNCQTQRA

Variants of: B1
Assay: abundance fitness (aPCA) (normalised: wild type 0, dead -1); higher = more abundant; growth selection in yeast, the domain comes from the species named
Settings: Homo sapiens

Query :: Using the record for Q53V , report its abundance fitness.
Result :: -0.256

Query :: Request the reported abundance fitness associated with F19P
Result :: -0.385

Query :: Endpoint output: abundance fitness of S13P . Value?
Result :: -0.062

Query :: For the variant T21C , what abundance fitness is on record?
Result :: 0.032

More entries:
Query :: For the variant shown here, G34F , give the reported abundance fitness.
Result :: -0.035

Query :: Any idea what its abundance fitness is? The variant is S13T
Result :: -0.048

Query :: # abundance fitness lookup, item T54K
Result :: 0.196

Query :: Find the recorded abundance fitness belonging to T23E and report it.
Result :: -0.043

Query :: Fill in: abundance fitness of L32M is ___
Result :: -0.131

Query :: Tell me the measured abundance fitness of L32N , please.
Result :: -0.176

Query :: Which abundance fitness value is on record for I11F ?
Result :: -0.063

Query :: Which abundance fitness is reported for this variant? W47C
Result :: -0.134

Query :: Quick one: abundance fitness for V29N ?
Result :: -0.199

Query :: # abundance fitness lookup, item D15H
Result :: -0.239

Query :: abundance fitness for K6D ?
Result :: -0.298

Query :: Endpoint output: abundance fitness of H40I . Value?
Result :: -0.018

Query :: Can you look up the measured abundance fitness of T54W for me?
Result :: -0.441

Query :: May I ask what abundance fitness has been recorded for C33L ?
Result :: -0.819

Query :: Record request: abundance fitness value, item D15K
Result :: -0.014

Query :: For the variant shown here, C30Q , give the reported abundance fitness.
Result :: -0.619

Query :: Please give the measured abundance fitness for this variant: F35S
Result :: 0.236

Query :: Can you share its abundance fitness? I mean this variant: T54H
Result :: -0.076

Query :: abundance fitness lookup needed for N20W , thanks.
Result :: -0.188

Query :: If you can, please state the reported abundance fitness value of S13I .
Result :: -0.21

Query :: abundance fitness for N27T ?
Result :: -0.082

Query :: For the variant shown here, D15F , give the reported abundance fitness.
Result :: 0.003

Query :: Would you kindly share the measured abundance fitness for G12I ?
Result :: 0.154

Query :: Requested field: abundance fitness. Item: C52D
Result :: -0.755

Query :: I have this variant here, N31C , and I need its recorded abundance fitness.
Result :: 0.093
